System: OVCAR-8 ovarian
Test: NCI-60 one-dose screen, 48 h
Details: 10 µM unless noted
Protocol: Growth inhibition of the OVCAR-8 human tumor cell line is measured as a screen for anti-cancer activity. Cells are grown in 96 well plates and exposed to the test compound for 48 hours. Compounds are tested at a single concentration, which is 10^-5 M for most compounds. The reported endpoint is percent growth (GI% or GIPRCNT), where numbers from 0 - 100% represent growth inhibition, and numbers from -100% - 0 represent cell death. For example, a value of 40 represents 60% growth inhibition. […]
This is part of a sample that, as a whole, favours compounds with a hit. Of some 83,000 tested, about 20% had one in any assay. Calls of active or inactive are those of the source. Rule for the calls: active = growth percent below 10; inactive = the rest.
Reply using exactly one outcome from active, inactive

NC(N)=Nc1ccc(Oc2cccc(NC(N)=Nc3ccc(I)cc3F)c2)cn1    inactive

// outcome(item) with item = O=C(Nc1ccc(Br)cc1)Nc1nc2ccc([N+](=O)[O-])cc2s1
active

Assay outcome for COc1cc(Nc2c(C#N)cnn3cc(-c4cnn(CC(C)(C)O)c4)cc23)ccc1Cl : what was it?
inactive

Please let me know the test result on file for CCOC(=O)c1c(N)c(C#N)cn1-c1cc(OC)c(OC)c(OC)c1 .
inactive

---

tested on: HS 578T breast; assay: NCI-60 one-dose screen, 48 h; settings: 10 µM unless noted
The panel holds about 83,000 compounds, 20% with a hit somewhere; the sample as a whole holds those more often. The source made the active and inactive calls. How the source made its calls: active means growth percent below 10; inactive means the rest.
The reply should be one of these categories: active, inactive

Worked examples follow.
CCOC(=O)C1=NNC(c2ccc(Cl)cc2)C1C(=O)N1C(=S)NC(=O)C1CC(C)C (stereo unspecified)    inactive
CN1CCN(Cc2ccc(NC(=O)c3cncc(C#Cc4cnc5ccc(NCCCO)nn45)c3)cc2C(F)(F)F)CC1    active
COc1ccc(-c2nc3cccc(O)c3c(=O)n2Cc2ccccc2)cc1COc1ccc(NC(C)=O)cc1    inactive
CCOC(=O)c1c(Nc2ccccc2)nn2c(-c3ccccc3)ccnc12    inactive
CS(=O)(=O)Nc1cc(-c2ccc3ncc(C#N)c(NCc4cccc(F)c4)c3c2)cnc1Cl    active
CC1(C)[C@@H](O)CC[C@]2(C)[C@H]3CC[C@@H]4[C@H]5[C@H](C(=O)/C=C\c6ccncc6)CC[C@]5(O)CC[C@@]4(C)[C@]3(C)CC[C@@H]12    inactive
O=S(=O)(NCCNc1nccc(-n2cnc3ccccc32)n1)c1ccc(C(F)(F)F)cc1    inactive
O=C1[C@H]2Cc3c([nH]c4ccccc34)[C@@H](c3ccc(Cl)cc3)N2C(=O)CN1C1CCN(Cc2ccccc2)CC1    inactive
Cc1ccc(C2=Nn3c(nnc3-c3ccccc3)SC2)cc1    inactive
COC(=O)C(Cc1ccccc1)Nc1nc(NC(Cc2ccccc2)C(=O)OC)nc(N2CCOCC2)n1 (stereo unspecified)    inactive

Field: next compound
Lab log entry: Brc1ccccc1/C=N/Nc1nc(N/N=C/c2ccccc2Br)nc(N2CCOCC2)n1 — outcome as called in the assay?
inactive

---

Entries and their measured growth follow.
system: BT-549 breast; experiment: NCI-60 one-dose screen, 48 h (100 = growth as untreated, 0 = no growth, -100 = all killed); details: 10 µM unless noted
This is part of a sample that, as a whole, favours compounds with a hit. Of some 83,000 tested, about 20% had one in any assay.
Record the value in %, omitting the unit from your answer.

CC1(C)NCCC[C@]2(C)[C@H]3C/C(=N\O)C4[C@@H]5C[C@@](C)(CO)CC[C@]5(C)CC[C@@]4(C)[C@]3(C)CC[C@@H]12 (stereo not given in full)    97.6

Fill in the blank: the reported growth of Cc1ccc(C2=NN(C)C(=O)C3(CCCC3)C2)cc1 is ____.
117

Entry under review: COc1ccc(NC(=O)Nc2ccc3c(ccn3C(=O)c3cccc(F)c3)c2)cc1 . Reported growth?
76.2

Any idea what its growth is? The compound is NC(N)=Nc1ccc(Oc2cccc(Nc3cccc(C(F)(F)F)c3)c2)cn1
61.2

growth for CC(=O)C1=C(C)NC(NNC(N)=S)=NC1c1ccccc1 (stereo not given) ?
92.2

Which measured growth value corresponds to O=C(CSc1nc2ccccc2c(=O)n1-c1ccccc1)Nc1cccc(C(=O)/C=C/c2ccccc2)c1 ?
112

# input compound: CC1(C)[C@@H](O)CC[C@]2(C)[C@H]3CC[C@@H]4[C@H]5[C@H](C(=O)/C=C\c6ccccn6)CC[C@]5(O)CC[C@@]4(C)[C@]3(C)CC[C@@H]12 ; wanted: its growth
36

Sample Cc1cc(-c2ccc(Cl)cc2)n(Cc2nnc(SCC(=O)Nc3ccc(S(N)(=O)=O)cc3)n2-c2ccc([N+](=O)[O-])cc2)n1 — what was its growth?
116
